B1: glmS ribozyme (parent)
chain: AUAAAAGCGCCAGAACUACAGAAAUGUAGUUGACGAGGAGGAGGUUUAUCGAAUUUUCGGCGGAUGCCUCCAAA

- Variants of: B1
- assay-info: self-cleavage kobs at 10000 uM GlcN6P; higher = faster cleavage; RNA array
- measurement-parameters: with glucosamine-6-phosphate
This sample holds only a part of the variants without activity.
# self-cleavage kobs at 10000 uM GlcN6P >= 0.0002 s⁻¹ gives t, anything below gives f

Observe how each entry below is paired with its result.
## Input Is self-cleavage kobs at 10000 uM GlcN6P for A33U A42G at or above 0.0002 s⁻¹?
## Output f

## Input Cool, now G32U C50G C71G
## Output t

## Input Cool, now A12U A42G U46G G63U
## Output f

---
## Input Is self-cleavage kobs at 10000 uM GlcN6P for G38A U46G U57G C58A at or above 0.0002 s⁻¹?
## Output f

## Input Cool, now A36C G37A A39C C50U A53C
## Output f

## Input Cool, now A12G G29A G63A
## Output f

## Input Cool, now A12C C16G U49A C68A
## Output f

## Input Cool, now C11U A14C A36G C50A
## Output f
